# ASSAY_SYSTEM: GST-CBP(1081-1197) bromodomain (Homo sapiens (Human), UniProt Q92793)
# Sequence (Q92793 1081-1197): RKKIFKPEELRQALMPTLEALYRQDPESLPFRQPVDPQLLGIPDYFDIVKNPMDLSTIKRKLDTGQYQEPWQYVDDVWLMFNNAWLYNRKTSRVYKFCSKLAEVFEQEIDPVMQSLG
# PROTOCOL_NOTES: CBP AlphaScreen Assay
# COND: binding to biotin-H4(1-21) Ac-K5/8/12/16 peptide
The recorded IC50 of each item maps onto one of these classes: lower bin = under 20 nM, middle bin = from 20 nM up to 100 nM, upper bin = 100 nM and over

The following compounds have reported results that may help.
CNC(=O)N1CCn2c(C3CC(F)(F)C3)nc(-c3cccc4cc(C5CCOCC5)ncc34)c2C1	lower bin
CNC(=O)N1CCn2c(C3CC3)nc(-c3ccc4c(c3)c(-c3cnn(C)c3)nn4C)c2C1	lower bin
CNC(=O)N1CCn2c(C3CN(C(C)=O)C3)nc(-c3ccc4c(c3)c(-c3cnn(C)c3)nn4C)c2C1	middle bin

Inquiry: The entry to classify is `CC(=O)N1CCn2c(C3CC3)nc(-c3ccc4c(cnn4C)c3)c2C1` ; which class holds it?
Reply text: upper bin

Inquiry: Class for `CC(=O)N1CCn2c(Cl)nc(-c3ccc4c(c3)c(-c3cnn(C)c3)nn4C)c2C1` ?
Reply text: upper bin

Inquiry: Textbook exercise: identify the category of the compound given here, `CNC(=O)N1CCn2c(C3CCOCC3)nc(-c3c(F)ccc4cc(-c5cn(C)nc5C)ncc34)c2C1` , according to its measured value.
Reply text: middle bin

Inquiry: Class label required: `CC(=O)N1CCn2c(C)nc(-c3ccc4c(c3)c(-c3cnn(C)c3)nn4C)c2C1`
Reply text: upper bin

Inquiry: Returns: class label. Input: `CC(=O)N1CCn2c(C3CC3)nc(-c3cc4c(-c5cnn(C)c5)nn(C)c4cc3F)c2C1`
Reply text: middle bin

Inquiry: Sort into band: `CNC(=O)N1CCn2c(C3CCOCC3)nc(-c3cccc4cc(-c5cnc(C)s5)ncc34)c2C1`
Reply text: lower bin
